test: determination of log P values by HPLC on a reversed-phase column (C18), EEC Directive 79/831 Annex V.A8; assay type: physicochemical; settings: reversed-phase C18 HPLC column (Zorbax Eclipse Plus C18); HPLC-MS method a): Zorbax Eclipse Plus C18; acetonitrile (0.1% formic acid) / water (0.09% formic acid), gradient 10% to 95% acetonitrile, 55° C.; read-out: log P
ASSAY_READOUT: chromatographic logP
Just the number.

Task: Return value of chromatographic logP for input `O=C(NC1CC1)c1cc(-c2cnn(-c3c(Cl)cc(C(F)(C(F)(F)F)C(F)(F)F)cc3C(F)(F)F)c2)cnc1Cl` , no commentary.
Output: 4

Task: Return value of chromatographic logP for input `FC(F)(F)C(F)(c1cc(Cl)c(-n2cc(I)cn2)c(Cl)c1)C(F)(F)F` , no commentary.
Output: 5.17

Task: Return value of chromatographic logP for input `CN(C(=O)c1cc(-c2cnn(-c3c(Br)cc(C(F)(C(F)(F)F)C(F)(F)F)cc3C(F)(F)F)c2)cnc1Cl)C1CC1` , no commentary.
Output: 4.28

Task: Return value of chromatographic logP for input `FC(F)Oc1cc(C(F)(C(F)(F)F)C(F)(F)F)cc(Cl)c1-n1cccn1` , no commentary.
Output: 4.04

Task: Return value of chromatographic logP for input `FC(F)(F)C(F)(c1cc(Cl)c(-n2cccn2)c(Cl)c1)C(F)(F)F` , no commentary.
Output: 4.22
